test system: c-Abl (mouse); experiment: phosphorylation enrichment, bacterial display (enrichment ratio); higher = better substrate or ligand; peptides without Tyr show the background;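 note: 11-residue human phosphosite peptides and single-mutation variants displayed on the E. coli surface, counted by deep sequencing, each peptide's frequency after selection divided by its frequency in the unselected input library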;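 note: frequency after pTyr selection over input frequency; kinase dosed for 20-30% of maximal phosphorylation in three min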
Overview of recorded phosphorylation enrichment for various sequences
Field format: numeric only.

Solved entries:
record_sequence="SDTGQYQCLVF [AXL_Y115]" endpoint_value=1.86
record_sequence="AAVPAYDKIQV [STXBP2_Y401_R405Q]" endpoint_value=0.96
record_sequence="NREGVYTVFAP [TGFBI_Y537]" endpoint_value=1.57
record_sequence="SPYAVYLFFTF [RPGRIP1_Y826_R827L]" endpoint_value=0.797
record_sequence="IEDNEYTAREG [HCK_Y411]" endpoint_value=1.08

Would you mind telling me what phosphorylation enrichment value was observed for TVDASYCGGRG [ANTXR2_Y380_Y381C] ? 0.465

Then what about the sequence SLAARYFNWVC [FLT4_Y1230_S1235C_YF] ? 0.899

Origin of measurements: the supplement of paper PMC10065799
